tested_on: IMP-1 (Serratia marcescens, UniProt P52699)
Construct: made in house
Sequence (P52699 19-246, looked up, species assumed): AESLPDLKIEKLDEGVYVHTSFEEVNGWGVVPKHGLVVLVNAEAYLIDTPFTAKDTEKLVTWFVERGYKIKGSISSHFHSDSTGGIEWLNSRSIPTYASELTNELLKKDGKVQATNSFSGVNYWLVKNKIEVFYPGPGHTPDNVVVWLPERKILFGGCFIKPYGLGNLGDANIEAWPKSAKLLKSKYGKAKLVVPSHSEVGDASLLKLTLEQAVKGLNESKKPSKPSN
assay_info: IMP-1 inhibition, fluorogenic cephalosporin (FC5) hydrolysis
Type: biochemical
measurement_setup: enethiols 6 assayed as sodium salts; 10 min incubation; read-out: IC50 IMP-1 (converted)
Binary call on IC50 with cut-off 700 nM: strictly below means Y, and equality or higher means N.

{"compound": "CN1CCN(NC(=O)CN2C(=O)/C(=C/c3ccccc3)SC2=S)CC1 [Compound 5a]", "tested_on": "IMP-1 (Serratia marcescens, UniProt P52699)", "group_label": "N"}
{"compound": "O=C(O)/C(S)=C/c1ccccc1Cl [Compound 6g]", "tested_on": "IMP-1 (Serratia marcescens, UniProt P52699)", "group_label": "Y"}
{"compound": "CN1CCN(NC(=O)CN2C(=O)/C(=C/c3c(F)cccc3Cl)SC2=S)CC1 [Compound 5j]", "tested_on": "IMP-1 (Serratia marcescens, UniProt P52699)", "group_label": "Y"}
{"compound": "O=C(O)/C(S)=C/c1ccccc1Cc1ccc2ccccc2c1 [Compound 6s]", "tested_on": "IMP-1 (Serratia marcescens, UniProt P52699)", "group_label": "Y"}
{"compound": "Cc1cccc(C)c1/C=C1\\SC(=S)N(CC(=O)NN2CCN(C)CC2)C1=O [Compound 5q]", "tested_on": "IMP-1 (Serratia marcescens, UniProt P52699)", "group_label": "N"}
{"compound": "O=C(O)CN1C(=O)/C(=C/c2ccccc2F)SC1=S [Compound 3f]", "tested_on": "IMP-1 (Serratia marcescens, UniProt P52699)", "group_label": "N"}
{"compound": "O=C(O)CN1C(=O)/C(=C/c2c(Cl)ccc(Cl)c2Cl)SC1=S [ML302A]", "tested_on": "IMP-1 (Serratia marcescens, UniProt P52699)", "group_label": "N"}
{"compound": "Cc1ccc(/C=C(\\S)C(=O)O)cc1 [Compound 6b]", "tested_on": "IMP-1 (Serratia marcescens, UniProt P52699)", "group_label": "Y"}
{"compound": "O=C(O)CN1C(=O)/C(=C/c2cc(Cl)ccc2Cl)SC1=S [Compound 3o]", "tested_on": "IMP-1 (Serratia marcescens, UniProt P52699)", "group_label": "N"}
